z-score values by entry
ASSAY_COMMENT: change in splice reporter luminescence, either direction, cell-based, HEK293, spliceosome inhibition project, primary screen (AID 1101);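 note: HEK293 cells carrying a splicing-competent luciferase reporter gene; test concentration not given here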
ASSAY_CONDITIONS: HEK293 splicing luciferase reporter, 24 h, higher = more signal, called active from +8 up or from −8 down

{"ENTRY_SMILES": "COCCOC(=O)N1C(=O)[C@@]2(c3cc(C#CC4(O)CCCCCC4)ccc31)[C@H](C(=O)N1CCN(c3ncccn3)CC1)[C@H]1C(=O)O[C@H](c3ccccc3)[C@H](c3ccccc3)N1[C@@H]2c1ccc(O)cc1", "z-score": -0.756}
{"ENTRY_SMILES": "CC(C)C[C@@H]1NC(=O)[C@@H]2C[C@H](C(=O)NCCCC[N+](C)(C)C)[C@H](c3cccc(OCCO)c3)N2C1=O", "z-score": -0.44}
{"ENTRY_SMILES": "C=C[C@H](C)[C@H](OC(=O)Nc1ccc(SC)cc1)c1ccc(O)c2ccccc12", "z-score": -2.12}

----------
ASSAY_COMMENT: compound effects on lung adenocarcinoma cell viability – A549, calcein-AM fluorescence, 48 h, basal, profiling panel (AID 1162); note: test concentration not given here
ASSAY_CONDITIONS: higher = more signal
z-score values by entry
MEASUREMENT_LABEL: z-score

{"MOLECULE": "O=C1NC(=O)C2C1C=CC(C(O)c1ccc(-c3ccccc3)s1)N2Nc1ccccn1 (centres undefined)", "MEASUREMENT_LABEL": "z-score", "OBSERVED": -0.275}
{"MOLECULE": "CC(C)NC(=O)[C@@]1(Cc2ccccc2I)c2ccccc2C(=O)N(Cc2ccccc2C(F)(F)F)[C@H]1c1ccc(CO)cc1", "MEASUREMENT_LABEL": "z-score", "OBSERVED": 0.325}
{"MOLECULE": "COCCOC(=O)N1C(=O)[C@@]2(c3ccccc31)[C@H](c1ccccc1OCCO)N1[C@H](c3ccccc3)[C@H](c3ccccc3)OC(=O)[C@H]1[C@@H]2C(=O)N1CCc2cc(OC)c(OC)cc2C1", "MEASUREMENT_LABEL": "z-score", "OBSERVED": -0.322}
{"MOLECULE": "Cc1ccc(C(C)CC(O)C2C=CC3C(=O)N(Cc4ccccc4)C(=O)C3N2n2cnnc2)o1 (centres undefined)", "MEASUREMENT_LABEL": "z-score", "OBSERVED": -0.732}

----------
Test system: glycogen synthase kinase-3 (GSK3A per assay name; protocol says GSK3B)
ASSAY_COMMENT: compounds binding glycogen synthase kinase-3 – biochemical, small-molecule microarray, 635 nm fluorescence, GSK3A, primary screen (AID 1103); note: the record names both GSK3A and GSK3B
ASSAY_CONDITIONS: fluorescence 635 nm, higher = more signal
Kind request: treat 0.8 as inclusive, so composite z-score at 0.8 or higher is YES, anything lower is NO.

{"ENTRY_SMILES": "C[N+](C)(C)CCCC[C@@H]1NC(=O)[C@@H]2C[C@H](C(=O)NCCCCCNC(=O)CS)[C@H](c3cccc(OCCO)c3)N2C1=O", "SYSTEM_NAME": "glycogen synthase kinase-3 (GSK3A per assay name; protocol says GSK3B)", "CLASSIFICATION": "NO"}
{"ENTRY_SMILES": "COCCOC(=O)N1C(=O)[C@@]2(c3cc(C#CCCO)ccc31)[C@H](c1ccc(OCCO)cc1)N1[C@H](c3ccccc3)[C@H](c3ccccc3)OC(=O)[C@H]1[C@@H]2C(=O)N1CCc2cc(OC)c(OC)cc2C1", "SYSTEM_NAME": "glycogen synthase kinase-3 (GSK3A per assay name; protocol says GSK3B)", "CLASSIFICATION": "YES"}
{"ENTRY_SMILES": "CC(C)CNC(=O)[C@@]1(C)c2ccccc2C(=O)N(Cc2ccccc2)[C@H]1c1ccc(CO)cc1", "SYSTEM_NAME": "glycogen synthase kinase-3 (GSK3A per assay name; protocol says GSK3B)", "CLASSIFICATION": "NO"}
{"ENTRY_SMILES": "[N-]=[N+]=Nc1ccccc1[C@H]1OC(c2ccc(OCCCO)cc2)=N[C@@]1(Cc1ccccc1)C(=O)NCc1ccccc1", "SYSTEM_NAME": "glycogen synthase kinase-3 (GSK3A per assay name; protocol says GSK3B)", "CLASSIFICATION": "YES"}
{"ENTRY_SMILES": "CC1=C2[C@@H](CCc3ccccc3)OB(O)C[C@@H]2[C@@H]2C(=O)C=CC(=O)[C@@H]2C1", "SYSTEM_NAME": "glycogen synthase kinase-3 (GSK3A per assay name; protocol says GSK3B)", "CLASSIFICATION": "NO"}
{"ENTRY_SMILES": "O=C1O[C@H](c2ccccc2)[C@H](c2ccccc2)N2[C@H]1[C@@H](C(=O)N1CCCCCCC1)[C@]1(C(=O)Nc3ccccc31)[C@H]2c1ccc(O)cc1", "SYSTEM_NAME": "glycogen synthase kinase-3 (GSK3A per assay name; protocol says GSK3B)", "CLASSIFICATION": "YES"}

----------
SYSTEM_NAME: Dihydroorotate dehydrogenase (quinone), mitochondrial (Plasmodium falciparum (isolate 3D7))
ASSAY_COMMENT: inhibition of P. falciparum DHODH – biochemical, C-terminal His tag, absorbance 600 nm, primary screen (AID 1175);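 note: recombinant parasite enzyme with a five histidine tag at its C terminus; test concentration not given here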
ASSAY_CONDITIONS: PfDHODH enzyme, DCIP absorbance 600 nm; higher = more signal, called active from +8 up or from −8 down

{"COMPOUND": "CCCCC(=C=CC[C@H](O)c1ccccc1OCCO)C[C@H](O)c1ccccn1", "composite z-score": -1.36}
{"COMPOUND": "C[N+](C)(C)CCCC[C@@H]1NC(=O)[C@@H]2C[C@H](C(=O)NCCCCCNC(=O)CS)[C@H](c3cccc(OCCO)c3)N2C1=O", "composite z-score": 1.09}
{"COMPOUND": "CC1CC/C=C\\[C@H]2OC34C=CCN(Cc5ccccc5)C(=O)[C@H]3N(CCO)C(=O)[C@@H]4C2C(=O)O1 (stereo partly drawn)", "composite z-score": 0.622}
{"COMPOUND": "COc1ccccc1CN1C(=O)c2ccccc2[C@](Cc2ccccc2I)(C(=O)NCCN2CCOCC2)[C@@H]1c1ccc(CO)cc1", "composite z-score": -1.1}
{"COMPOUND": "CC(C)CNC(=O)[C@@]1(C)c2ccccc2C(=O)N(Cc2ccccc2)[C@H]1c1ccc(CO)cc1", "composite z-score": -0.362}
{"COMPOUND": "O=[N+]([O-])c1ccc(C[n+]2ccc(-c3ccc(CO)cc3)cc2)o1", "composite z-score": -1.94}
{"COMPOUND": "O=C1c2ccccc2[C@](Cc2ccccc2I)(C(=O)NC2CC2)[C@H](c2ccc(CO)cc2)N1Cc1ccccc1Cl", "composite z-score": 0.37}
{"COMPOUND": "COCCOC(=O)N1C(=O)[C@@]2(c3cc(C#CCCO)ccc31)[C@H](c1ccc(OCCO)cc1)N1[C@H](c3ccccc3)[C@H](c3ccccc3)OC(=O)[C@H]1[C@@H]2C(=O)N1CCc2cc(OC)c(OC)cc2C1", "composite z-score": -1.02}
{"COMPOUND": "COCCOC(=O)N1C(=O)[C@@]2(c3cc(C#CCNC(N)=O)ccc31)[C@H](c1ccc(OCCO)cc1)N1[C@H](c3ccccc3)[C@H](c3ccccc3)OC(=O)[C@H]1[C@@H]2C(=O)N1CCN(c2ncccn2)CC1", "composite z-score": -0.239}
{"COMPOUND": "[N-]=[N+]=NCc1ccccc1C[C@]1(C(=O)NCCN2CCOCC2)COC(c2ccc(OCCCO)cc2)=N1", "composite z-score": 0.456}
{"COMPOUND": "CCC[C@@H]1C[C@@]1(CCC)[C@@H](NC(=O)c1cccs1)c1ccc(Cl)cc1", "composite z-score": -0.118}
{"COMPOUND": "C=CCN1C(=O)[C@@]2(O[C@@H](CCO)[C@H]([Si](C)(C)c3ccc(OC)cc3)[C@H]2C)c2cc(NC(=O)[C@H](C)O)ccc21", "composite z-score": -0.108}
{"COMPOUND": "COC(=O)[C@@]1(Cc2ccc(OC)cc2)[C@H]2c3cc(C(=O)N4CCCC4)n(CCF)c3C[C@H]2CN1C(=O)c1ccccc1", "composite z-score": 0.0648}
{"COMPOUND": "O=C1N(CCS(=O)(=O)c2ccccc2)Cc2ccccc2C[C@@]12COC(c1ccc(OCCCO)cc1)=N2", "composite z-score": -0.211}
{"COMPOUND": "COCCCNC(=O)[C@]1(Cc2ccccc2)N=C(c2ccc(OCCCO)cc2)O[C@@H]1c1ccccc1N=[N+]=[N-]", "composite z-score": 0.828}
{"COMPOUND": "[N-]=[N+]=NCc1ccccc1[C@H]1OC(c2ccc(OCCCO)cc2)=N[C@@]1(Cc1ccccc1N=[N+]=[N-])C(=O)NCCN1CCOCC1", "composite z-score": 1.15}
{"COMPOUND": "CCOc1cc(C(O)C2C=CC3C(=O)NC(=O)C3N2Nc2ccccn2)ccc1O (stereo not drawn)", "composite z-score": 0.21}
{"COMPOUND": "O=C1O[C@@H](c2ccccc2)[C@@H](c2ccccc2)N2[C@@H](c3ccc(O)cc3)[C@]3(C(=O)Nc4ccc(C#CC5(O)CCCCCC5)cc43)[C@@H](C(=O)N3CCN(c4ncccn4)CC3)[C@H]12", "composite z-score": -1.08}
{"COMPOUND": "C=CCOC(=O)[C@@H]1[C@H]2C(=O)O[C@H](c3ccccc3)[C@H](c3ccccc3)N2[C@H](c2ccc(OCCOC(=O)[C@H]3C[C@H]4C(=O)N[C@@H](Cc5ccccc5)C(=O)N4[C@H]3c3cccc(OCCO)c3)cc2)[C@@]12C(=O)Nc1ccc(I)cc12", "composite z-score": -3.73}
{"COMPOUND": "C#CCNS(=O)(=O)N(C)C", "composite z-score": 0.196}
{"COMPOUND": "C=CCC(OC(C)=O)[C@@H]1[C@@H](N(Cc2cc3ccccc3o2)C(=O)Cc2ccc(OC)cc2)c2cc(OCCCO)ccc2N1C(=O)c1ccc(-c2ccccc2)cc1 (stereo partly drawn)", "composite z-score": 0.849}
{"COMPOUND": "O=C(C=C(CC(O)c1cccc(Cl)c1)OCCF)OCCF (stereo not drawn)", "composite z-score": -2.48}
{"COMPOUND": "CC(C)C[C@@H]1NC(=O)[C@@H]2C[C@H](C(=O)NCc3ccc(F)cc3)[C@H](c3ccc(O)cc3)N2C1=O", "composite z-score": -1.36}
{"COMPOUND": "CCOC(=O)C[C@H]1[C@H](OC(=O)Cc2ccc3c(c2)OCO3)[C@@H](NC(=O)c2ccccc2)c2cc(OCCCO)ccc2N1C(=O)c1ccccc1", "composite z-score": -1.11}
{"COMPOUND": "C[N+](C)(C)CCCCCCNC(=O)[C@H]1C[C@H]2C(=O)N3CCC[C@H]3C(=O)N2[C@H]1c1cccc(OCCO)c1", "composite z-score": -0.788}
{"COMPOUND": "O=C1O[C@@H](c2ccccc2)[C@@H](c2ccccc2)N2[C@@H](c3ccc(O)cc3)[C@]3(C(=O)Nc4ccc(C#CC5=CCCCC5)cc43)[C@@H](C(=O)Nc3nc4ccccc4s3)[C@H]12", "composite z-score": -0.504}
{"COMPOUND": "COc1cc2c(cc1OC)CN(C(=O)[C@@H]1[C@H]3C(=O)O[C@H](c4ccccc4)[C@H](c4ccccc4)N3[C@H](c3ccc(OCCO)cc3)[C@@]13C(=O)Nc1ccc(C#CCCO)cc13)CC2", "composite z-score": 1.66}
{"COMPOUND": "COC(=O)C(CC#Cc1ccc2c(c1)[C@]1(C(=O)N2)[C@H](c2ccc(O)cc2)N2[C@H](c3ccccc3)[C@H](c3ccccc3)OC(=O)[C@H]2[C@@H]1C(N)=O)C(=O)OC", "composite z-score": 0.133}
